target: LTB-4 receptor (Homo sapiens, UniProt Q15722); construct: Final neutrophil was dispersed to 3×10^7 cell/ml in HBSS media and used for measuring the antagonizing action for LTB-4 receptor; endogenous in cells; host or cells: neutrophils from human whole blood; test: Antagonizing action for LTB-4 receptor ([3H]-LTB-4 binding to human neutrophils); conditions: concentration of 50% of antagonizing in binding to receptor; read-out: IC50
Sequence (Q15722 whole entry): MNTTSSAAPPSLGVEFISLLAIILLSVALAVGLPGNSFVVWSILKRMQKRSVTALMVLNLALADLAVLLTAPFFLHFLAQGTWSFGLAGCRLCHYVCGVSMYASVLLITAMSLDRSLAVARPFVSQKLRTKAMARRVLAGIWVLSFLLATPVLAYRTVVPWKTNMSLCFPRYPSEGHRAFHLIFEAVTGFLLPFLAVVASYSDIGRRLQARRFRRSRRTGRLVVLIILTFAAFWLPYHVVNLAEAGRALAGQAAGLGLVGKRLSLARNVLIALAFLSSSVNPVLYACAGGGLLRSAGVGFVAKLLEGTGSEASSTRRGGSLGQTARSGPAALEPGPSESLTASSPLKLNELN

{"Molecule": "COc1cc(C(=O)N(C(C)C)C(C)C)ccc1OCCCCOc1ccc2c(N)noc2c1 [HS-1141]", "IC50 / nM": 7}

* * *

target: LTB-4 receptor (Homo sapiens, UniProt Q15722); construct: Final neutrophil was dispersed to 3×10^7 cell/ml in HBSS media and used for measuring the antagonizing action for LTB-4 receptor; endogenous in cells; host or cells: neutrophils from human whole blood; assay: Antagonizing action for LTB-4 receptor ([3H]-LTB-4 binding to human neutrophils); conditions: 10 nM; inhibition of selective [3H]-LTB-4 binding, human neutrophils; read-out: Degree of inhibition (%) 10 nM

{"Compound": "COc1cc(C(=O)N(C(C)C)C(C)C)ccc1OCCCCCOc1ccc(C(=N)N)cc1 [CGS-25019C, reference compound]", "inhibition at 0.01 µM": "11%"}
{"Compound": "COc1cc(C(=O)N(C(C)C)C(C)C)ccc1OCCCCCOc1ccc2c(N)noc2c1", "inhibition at 0.01 µM": "< 10%"}
{"Compound": "COc1cc(C(=O)N(C(C)C)C(C)C)ccc1OCCCCOc1ccc2c(N)noc2c1", "inhibition at 0.01 µM": "64%"}
{"Compound": "COc1cc(C(=O)N(C(C)C)C(C)C)ccc1OCCCOc1ccc2c(N)noc2c1", "inhibition at 0.01 µM": "< 10%"}
